- ASSAY: Phase 1 relative bioavailability study: plasma pharmacokinetics of midazolam, 1-hydroxymidazolam, ketamine and norketamine
- MEASUREMENT_CONTEXT: human, plasma, iv, 3.5 mg, GeoMean AUCinf, midazolam, Ref (C) midazolam 3.5 mg IV; least squares geometric mean
- Protocol: PK analysis was performed using noncompartmental methods in Phoenix WinNonlin® (Version 8.1, Certara, L.P.) in conjunction with the internet-accessible implementation of the Pharsight® Knowledgebase Server™ (PKSO; Version 4.0.4, Certara, L.P). […] During the PK analysis, concentrations below the limit of quantitation (BLQ) up to the time of the first quantifiable concentration were treated as zero. […]
RESULT_TYPE: AUC(0-inf) (ng·h/mL)
Reply numerically in ng·h/mL, unit not repeated.

Query Cc1ncc2n1-c1ccc(Cl)cc1C(c1ccccc1F)=NC2 yields AUC(0-inf) of 174

====

- ASSAY: Phase 1 relative bioavailability study: plasma pharmacokinetics of midazolam, 1-hydroxymidazolam, ketamine and norketamine
- MEASUREMENT_CONTEXT: human, plasma, iv, 3.5 mg
RESULT_TYPE: half-life
I'd appreciate it if you wrote the number followed by its unit.

Query Cc1ncc2n1-c1ccc(Cl)cc1C(c1ccccc1F)=NC2 [Midazolam] yields half-life of 7 h

====

- ASSAY: Phase 1 relative bioavailability study: plasma pharmacokinetics of midazolam, 1-hydroxymidazolam, ketamine and norketamine
- MEASUREMENT_CONTEXT: human, plasma, iv, 18 mg, AUC0-t, ketamine, Treatment D: ketamine 18 mg IV; mean
RESULT_TYPE: AUC(0-t) (ng·h/mL)
Reply numerically in ng·h/mL, unit not repeated.

Query CNC1(c2ccccc2Cl)CCCCC1=O (stereo not shown) yields AUC(0-t) of 283

====

- ASSAY: Phase 1 relative bioavailability study: plasma pharmacokinetics of midazolam, 1-hydroxymidazolam, ketamine and norketamine
- MEASUREMENT_CONTEXT: human, plasma, iv, 3.5 mg, Tmax, midazolam, Treatment C: midazolam 3.5 mg IV; median (range)
RESULT_TYPE: Tmax (min)
Reply numerically in min, unit not repeated.

Query Cc1ncc2n1-c1ccc(Cl)cc1C(c1ccccc1F)=NC2 [Midazolam] yields Tmax of 11

====

- ASSAY: Phase 1 relative bioavailability study: plasma pharmacokinetics of midazolam, 1-hydroxymidazolam, ketamine and norketamine
- MEASUREMENT_CONTEXT: human, plasma, iv, 18 mg, GeoMean Cmax, ketamine, Ref (D) ketamine 18 mg IV; least squares geometric mean
RESULT_TYPE: Cmax (µg/mL)
Reply numerically in µg/mL, unit not repeated.

Query CNC1(c2ccccc2Cl)CCCCC1=O (stereo not shown) [Ketamine] yields Cmax of 0.208

====

- ASSAY: Phase 1 relative bioavailability study: plasma pharmacokinetics of midazolam, 1-hydroxymidazolam, ketamine and norketamine
- MEASUREMENT_CONTEXT: human, plasma, iv, 18 mg, GeoMean AUC0-t, ketamine, Ref (D) ketamine 18 mg IV; least squares geometric mean
RESULT_TYPE: AUC(0-t)
I'd appreciate it if you wrote the number followed by its unit.

Query CNC1(c2ccccc2Cl)CCCCC1=O (stereo not shown) [Ketamine] yields AUC(0-t) of 0.277 µg·h/mL

====

- ASSAY: Phase 1 relative bioavailability study: plasma pharmacokinetics of midazolam, 1-hydroxymidazolam, ketamine and norketamine
- MEASUREMENT_CONTEXT: human, plasma, iv, 3.5 mg, AUCinf, midazolam, Treatment C: midazolam 3.5 mg IV; mean
RESULT_TYPE: AUC(0-inf) (ng·h/mL)
Reply numerically in ng·h/mL, unit not repeated.

Query Cc1ncc2n1-c1ccc(Cl)cc1C(c1ccccc1F)=NC2 yields AUC(0-inf) of 179
